- TARGET SYSTEM: MRGPRX4-83S (Homo sapiens, UniProt Q96LA9, L83S)
- Sequence (Q96LA9 whole entry L83S): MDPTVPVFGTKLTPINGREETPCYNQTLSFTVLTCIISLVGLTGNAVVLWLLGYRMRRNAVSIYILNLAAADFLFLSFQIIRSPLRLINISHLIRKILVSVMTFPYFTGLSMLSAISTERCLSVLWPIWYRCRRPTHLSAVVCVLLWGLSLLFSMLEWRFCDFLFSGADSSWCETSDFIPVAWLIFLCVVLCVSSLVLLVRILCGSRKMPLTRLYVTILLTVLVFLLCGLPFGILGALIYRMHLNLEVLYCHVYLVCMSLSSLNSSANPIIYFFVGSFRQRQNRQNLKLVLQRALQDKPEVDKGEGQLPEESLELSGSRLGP
- PROCEDURE DETAILS: β-arrestin assay (CHO β-arrestin human MRGPRX4-83S)
- Assay type: cell-based
- Set-up: host or cells: CHO β-arrestin cells
- CONDITION: Table 2; β-arrestin recruitment, CHO cells, MRGPRX4-83S; read-out: EC50 ± SEM
Labelling: EC50 reported below 70 nM becomes condition met; at or above becomes condition not met.

| COMPOUND | TARGET SYSTEM | GROUP LABEL |
| --- | --- | --- |
| C#CCn1c(=O)c2c(nc(CCc3ccccc3Br)n2C)n(CCCCP(=O)(O)OCC)c1=O [D-1] | MRGPRX4-83S (Homo sapiens, UniProt Q96LA9, L83S) | condition not met |
| C#CCn1c(=O)c2[nH]c(CCc3ccccc3OC)nc2n(CCCCC(=O)O)c1=O [G-1] | MRGPRX4-83S (Homo sapiens, UniProt Q96LA9, L83S) | condition not met |
| C#CCn1c(=O)c2c(nc(CCc3cccc(C(F)(F)F)c3)n2C)n(CCCCP(=O)(O)O)c1=O [B-16] | MRGPRX4-83S (Homo sapiens, UniProt Q96LA9, L83S) | condition met |
| CCn1c(=O)c2[nH]c(CCc3ccc(F)cc3)nc2n(CCCCP(=O)(O)O)c1=O [B-14] | MRGPRX4-83S (Homo sapiens, UniProt Q96LA9, L83S) | condition not met |
| CCOP(=O)(CCCCn1c(=O)n(CC2CCC2)c(=O)c2[nH]c(CCc3cccc(OC)c3)nc21)OCC [C-7] | MRGPRX4-83S (Homo sapiens, UniProt Q96LA9, L83S) | condition not met |
| C#CCn1c(=O)c2c(nc(CCc3cccc(OC)c3)n2C)n(CCCCP(=O)(O)O)c1=O [B-15] | MRGPRX4-83S (Homo sapiens, UniProt Q96LA9, L83S) | condition met |
| C#CCn1c(=O)c2[nH]c(CCc3ccccc3OC)nc2n(CCCCP(=O)(OCC)OCC)c1=O [C-1] | MRGPRX4-83S (Homo sapiens, UniProt Q96LA9, L83S) | condition not met |

---

- TARGET SYSTEM: MRGPRX4-83S (Homo sapiens, UniProt Q96LA9, L83S)
- PROCEDURE DETAILS: β-arrestin assay (CHO β-arrestin human MRGPRX4-83S)
- Assay type: cell-based
- Design: host or cells: CHO β-arrestin cells
- CONDITION: Table 3; β-arrestin recruitment, CHO cells, MRGPRX4-83S; read-out: EC50 ± SEM
pEC50: −log10 of the molar value.
So basically: pEC50 at 10 or higher? That is satisfied. Lower than 10? That is not satisfied.

| SMILES STRUCTURE | GROUP LABEL |
| --- | --- |
| C#CCn1c(=O)c2c(nc(CCc3ccc(-c4ccccc4)cc3)n2CC2CCCC2)n(CCCCP(=O)(O)O)c1=O | not satisfied |
| C#CCn1c(=O)c2c(nc(CCc3ccc(C(C)C)cc3)n2CC2CCCC2)n(CCCCP(=O)(O)O)c1=O | not satisfied |
| C#CCn1c(=O)c2[nH]c(CCc3ccc(-c4ccccc4)cc3)nc2n(CCCCP(=O)(O)O)c1=O | not satisfied |
| C#CCn1c(=O)c2c(nc(CCc3ccccc3C)n2CC)n(CCCCP(=O)(O)O)c1=O | satisfied |
| C#CCn1c(=O)c2c(nc(CCc3ccc(C(F)(F)F)cc3)n2CC2CCCC2)n(CCCCP(=O)(O)O)c1=O | not satisfied |
| C#CCn1c(=O)c2c(nc(CCc3ccc(OC)cc3)n2CC2CCCC2)n(CCCCP(=O)(O)O)c1=O | not satisfied |

---

| SMILES STRUCTURE | melting point |
| --- | --- |
| C#CCn1c(=O)c2[nH]c(CCc3cccc(C)c3)nc2n(CCCCP(=O)(O)O)c1=O | 244 to 246 °C |
| C#CCn1c(=O)c2[nH]c(CCc3ccccc3OC)nc2n(CCCCC(=O)O)c1=O | 196 to 198 °C |
| C#CCn1c(=O)c2c(nc(CCc3ccccc3Br)n2CCN)n(CCCCP(=O)(O)O)c1=O | 159 to 161 °C |
| C#CCn1c(=O)c2c(nc(CCc3ccccc3C)n2C(C)C)n(CCCCP(=O)(O)O)c1=O | 88 to 90 °C |
| C#CCn1c(=O)c2c(nc(CCc3ccccc3Br)n2CCCl)n(CCCCP(=O)(O)O)c1=O | 197 to 199 °C |
| C#CCn1c(=O)c2[nH]c(CCc3ccccc3Br)nc2n(CCCCCCP(=O)(O)O)c1=O | 225 to 227 °C |
| C#CCn1c(=O)c2[nH]c(CCc3cccc(Br)c3)nc2n(CCCCP(=O)(OCC)OCC)c1=O | 133 to 135 °C |
| CCn1c(=O)c2[nH]c(CCc3ccc(F)cc3)nc2n(CCCCP(=O)(O)O)c1=O | 256 to 260 °C |

---

Each entry below carries its recorded melting point.

| MOLECULE | melting point |
| --- | --- |
| C#CCn1c(=O)c2[nH]c(CCc3ccccc3Br)nc2n(CCCCCP(=O)(O)O)c1=O | 219 to 221 °C |
| C#CCn1c(=O)c2c(nc(CCc3ccccc3F)n2C)n(CCCCP(=O)(O)O)c1=O | 217 to 219 °C |
| C#CCn1c(=O)c2c(nc(CCc3ccccc3Br)n2CCC)n(CCCCP(=O)(O)O)c1=O | 178 to 181 °C |
| C#CCn1c(=O)c2c(nc(CCc3ccc(Br)cc3)n2C)n(CCCCP(=O)(O)O)c1=O | 227 to 229 °C |
| C#CCn1c(=O)c2c(nc(CCc3ccc(-c4ccccc4)cc3)n2CC2CCCC2)n(CCCCP(=O)(O)O)c1=O | 156 to 158 °C |
| CCOP(=O)(CCCCn1c(=O)n(CC)c(=O)c2[nH]c(C3CC3c3ccccc3)nc21)OCC (stereo not shown) | 124 to 126 °C |
| C#CCn1c(=O)c2c(nc(CCc3ccccc3Br)n2CC2CCCCC2)n(CCCCP(=O)(O)O)c1=O | 143 to 145 °C |
| C#CCn1c(=O)c2[nH]c(CCc3ccccc3I)nc2n(CCCCP(=O)(O)O)c1=O | 227 to 229 °C |
| C#CCn1c(=O)c2c(nc(CCc3ccc(C(C)C)cc3)n2CC2CCCC2)n(CCCCP(=O)(O)O)c1=O | 125 to 127 °C |
| C#CCn1c(=O)c2[nH]c(CCc3cccc(F)c3)nc2n(CCCCP(=O)(O)O)c1=O | 154 to 156 °C |
| C#CCn1c(=O)c2[nH]c(CCc3cccc(C)c3)nc2n(CCCCP(=O)(OCC)OCC)c1=O | 111 to 113 °C |
| C#CCn1c(=O)c2[nH]c(CCc3ccccc3Br)nc2n(CCCCS(N)(=O)=O)c1=O | 216 to 219 °C |
| O=C(O)CCCCn1c(=O)n(CC2CCC2)c(=O)c2[nH]c(CCc3cccc(C(F)(F)F)c3)nc21 | 210 to 212 °C |
| C#CCn1c(=O)c2nc(CCc3ccc(Br)cc3)[nH]c2n(CCCCP(=O)(O)O)c1=O | 206 to 208 °C |
| C#CCn1c(=O)c2c(nc(CCc3ccccc3I)n2CC)n(CCCCP(=O)(O)O)c1=O | 202 to 204 °C |
| C#CCn1c(=O)c2[nH]c(CCc3ccc(OC)c(OC)c3)nc2n(CCCCP(=O)(O)O)c1=O | 254 to 256 °C |
| C#CCn1c(=O)c2c(nc(CCc3ccccc3OC)n2C)n(CCCCP(=O)(OCC)OCC)c1=O | 124 to 146 °C |
| C#CCn1c(=O)c2c(nc(CCc3ccc(Br)cc3)n2CC2CCCC2)n(CCCCP(=O)(O)O)c1=O | 129 to 131 °C |
| CCn1c(=O)c2[nH]c(CCc3cccc(OC)c3)nc2n(CCCCS(=O)(=O)O)c1=O | 179 to 181 °C |
| C#CCn1c(=O)c2[nH]c(CCc3ccccc3OC)nc2n(CCCCP(=O)(OCC)OCC)c1=O | 104 to 106 °C |
| C#CCn1c(=O)c2c(nc(CCc3ccccc3Br)n2C(C)C)n(CCCCP(=O)(O)O)c1=O | 109 to 111 °C |
| C#CCn1c(=O)c2[nH]c(CCc3ccc(-c4ccccc4)cc3)nc2n(CCCCP(=O)(O)O)c1=O | 212 to 214 °C |

---

- TARGET SYSTEM: MRGPRX4-83S (Homo sapiens, UniProt Q96LA9, L83S)
- PROCEDURE DETAILS: β-arrestin assay (CHO β-arrestin human MRGPRX4-83S)
- Assay type: cell-based
- Design: host or cells: CHO β-arrestin cells
- CONDITION: Table 2; β-arrestin recruitment, CHO cells, MRGPRX4-83S; read-out: EC50 ± SEM
pEC50: −log10 of the molar value.
So basically: pEC50 at 7 or higher? That is met. Lower than 7? That is not met.

| COMPOUND | TARGET SYSTEM | GROUP LABEL |
| --- | --- | --- |
| C#CCn1c(=O)c2c(nc(CCc3ccccc3Br)n2C)n(CCCCP(=O)(O)O)c1=O [B-18] | MRGPRX4-83S (Homo sapiens, UniProt Q96LA9, L83S) | met |
| C#CCn1c(=O)c2[nH]c(CCc3ccc(OC)c(OC)c3)nc2n(CCCCP(=O)(OCC)OCC)c1=O [C-8] | MRGPRX4-83S (Homo sapiens, UniProt Q96LA9, L83S) | not met |
| C#CCn1c(=O)c2[nH]c(CCc3ccccc3Br)nc2n(CCCCS(N)(=O)=O)c1=O [F-1] | MRGPRX4-83S (Homo sapiens, UniProt Q96LA9, L83S) | not met |
| C#CCn1c(=O)c2c(nc(CCc3cccc(OC)c3)n2C)n(CCCOP(=O)(O)O)c1=O [H-1, reference compound] | MRGPRX4-83S (Homo sapiens, UniProt Q96LA9, L83S) | not met |
| C#CCn1c(=O)c2[nH]c(CCc3ccccc3)nc2n(CCCCP(=O)(O)O)c1=O [B-1] | MRGPRX4-83S (Homo sapiens, UniProt Q96LA9, L83S) | not met |
| C#CCn1c(=O)c2[nH]c(CCc3cccc(OC)c3)nc2n(CCCCP(=O)(O)OCC)c1=O [D-3] | MRGPRX4-83S (Homo sapiens, UniProt Q96LA9, L83S) | met |
| C#CCn1c(=O)c2[nH]c(CCc3cccc(C)c3)nc2n(CCCCP(=O)(OCC)OCC)c1=O [C-4] | MRGPRX4-83S (Homo sapiens, UniProt Q96LA9, L83S) | not met |
